# assayNotes: Metabolic stability in human liver microsome after 20 mins by HPLC in presence of NADPH
# Type: ADME
# assayConditions: liver microsomes, read-out: Stability
// values below are reported microsomal CLint
experimentalReadout: microsomal CLint

# molecule, val
rows = [
    ("CCC(CC)(NC(=O)c1cnn2c1N[C@@H](c1ccccc1)CC2(C)C)c1ccc(C)cc1.Cl", "99 µL/min/mg"),
    ("CCC(CC)(NC(=O)c1c(C)nn2c1N[C@@H](c1ccccc1)CC2(C)C)c1ccccc1", "183 µL/min/mg"),
    ("CCC(CC)(NC(=O)c1c(C)nn2c1N[C@@H](c1ccccc1)CC2(C)C)c1ccc(OC)c(OC)c1", "105 µL/min/mg"),
    ("CCC(CC)(NC(=O)c1c(C)nn2c1N[C@@H](c1ccccc1)CC2(C)C)c1ccc(OC)cc1", "90 µL/min/mg"),
    ("CCCc1nn2c(c1C(=O)NC(CC)(CC)c1ccc(C)cc1)NC(c1ccccc1)CC2(C)C.Cl (racemic)", "157 µL/min/mg"),
    ("CCC(CC)(NC(=O)c1c(SC)nn2c1NC(c1ccccc1)CC2(C)C)c1ccc(C)cc1.Cl (racemic)", "89 µL/min/mg"),
    ("CCC(CC)(NC(=O)c1c(C)nn2c1N[C@@H](c1ccccc1)CC2(C)C)c1ccc(Cl)c(OC)c1.Cl", "153 µL/min/mg"),
    ("CCC(CC)(NC(=O)c1c(C)nn2c1N[C@@H](c1ccccc1)CC2(C)C)c1ccc(C(C)C)cc1", "96 µL/min/mg"),
    ("CCC(CC)(NC(=O)c1c(C)nn2c1N[C@@H](c1ccccc1)CC2(C)C)c1ccc(OC)c(Cl)c1", "38 µL/min/mg"),
    ("CCCCc1nn2c(c1C(=O)NC(CC)(CC)c1ccc(C)cc1)NC(c1ccccc1)CC2(C)C.Cl (racemic)", "140 µL/min/mg"),
    ("CCC(CC)(NC(=O)c1c(C)nn2c1NC(c1ccccc1)CC2(C)C)c1ccc(C)cc1.Cl (racemic)", "118 µL/min/mg"),
    ("CCOc1ccc(C(CC)(CC)NC(=O)c2c(C)nn3c2N[C@@H](c2ccccc2)CC3(C)C)cc1.Cl", "84 µL/min/mg"),
    ("CCc1ccc(C(CC)(CC)NC(=O)c2c(C)nn3c2N[C@@H](c2ccccc2)CC3(C)C)cc1.Cl", "90 µL/min/mg"),
    ("CCC(CC)(NC(=O)c1c(C)nn2c1N[C@@H](c1ccccc1)CC2(C)C)c1ccc(C)cc1.Cl", "124 µL/min/mg"),
    ("CCC(CC)(NC(=O)c1c(C)nn2c1N[C@@H](c1ccccc1)CC2(C)C)c1ccc(OC)c(F)c1.Cl", "82 µL/min/mg"),
]

###

# assayNotes: Aqueous solubility of the compound at pH 6.8 by HPLC in presence of bile acid
# Type: physicochemical
# assayConditions: aqueous medium with bile acid

# compound, solubility
measured = [
    ("CCCc1nn2c(c1C(=O)NC(CC)(CC)c1ccc(C)cc1)NC(c1ccccc1)CC2(C)C.Cl (racemic)", "> 98 µg/mL"),
    ("CCC(CC)(NC(=O)c1c(SC)nn2c1NC(c1ccccc1)CC2(C)C)c1ccc(C)cc1.Cl (racemic)", "> 99 µg/mL"),
    ("CCCCc1nn2c(c1C(=O)NC(CC)(CC)c1ccc(C)cc1)NC(c1ccccc1)CC2(C)C.Cl (racemic)", "> 97 µg/mL"),
    ("CCc1nn2c(c1C(=O)NC(CC)(CC)c1ccc(C)cc1)NC(c1ccccc1)CC2(C)C.Cl (racemic)", "> 94 µg/mL"),
]
